Reported self-cleavage values follow for various variants
B1: HDV Ribozyme (parent)
chain: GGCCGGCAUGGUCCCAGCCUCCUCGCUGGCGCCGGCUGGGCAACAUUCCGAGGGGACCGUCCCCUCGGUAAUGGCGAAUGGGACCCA

- Variants of: B1
- EXPERIMENT: self-cleavage, relative activity (ratio to wild type); higher = more cleavage; co-transcriptional
RECORDED_ENDPOINT: self-cleavage

>>> recorded_result("G5C G68C")
0
>>> recorded_result("G82C A87C")
0.28
>>> recorded_result("A8U G82C")
0.0923
>>> recorded_result("G10A C32G")
0.0966
>>> recorded_result("C30G C66A")
0.0282
>>> recorded_result("G28U C33A")
0.124
>>> recorded_result("G5C C7A")
0.119
>>> recorded_result("C26U U65A")
0.769
>>> recorded_result("A16U A43G")
0.453
>>> recorded_result("C64U C86G")
0.972
>>> recorded_result("U23A A43U")
0.481
>>> recorded_result("G6C C49A")
0.262
>>> recorded_result("U37A G67U")
0.272
>>> recorded_result("G40A G67C")
0.992
>>> recorded_result("G39U A71G")
0.383
>>> recorded_result("C41A C62U")
0.869
>>> recorded_result("C58A A77C")
0.482
>>> recorded_result("C18A A71C")
0.0504
>>> recorded_result("U23C C49G")
0.655
>>> recorded_result("C24G U27C")
0.0791
>>> recorded_result("G59C U69G")
1.11
>>> recorded_result("U20C C66G")
0.131
>>> recorded_result("G5C A71C")
0.0639
>>> recorded_result("C4U G82C")
0.0875
>>> recorded_result("C7U G31A")
0.876
>>> recorded_result("A16G G55C")
1.2
>>> recorded_result("G25U C32U")
0.161
>>> recorded_result("G6A G28U")
0.0573
>>> recorded_result("G34A C49A")
0.0852
>>> recorded_result("C33A G80U")
0.136
>>> recorded_result("G25U G28U")
0.0652
>>> recorded_result("U46A C85G")
0.575
>>> recorded_result("C19U C62A")
0.142
>>> recorded_result("C15G C63A")
0.684
>>> recorded_result("G2C G35A")
0.0623
>>> recorded_result("G54A C86G")
1.07
>>> recorded_result("A8G G50U")
0.984
>>> recorded_result("A77G G81C")
0.256
>>> recorded_result("A16U C62U")
1.04
>>> recorded_result("G10C C22A")
0.108
>>> recorded_result("U23A G39A")
0.408
>>> recorded_result("U9C C85G")
0.731
>>> recorded_result("G76U G80A")
0.595
>>> recorded_result("U9G C30G")
0.145
>>> recorded_result("C4G G81U")
0.0554
>>> recorded_result("G31A U72G")
0.145
>>> recorded_result("A56G U72G")
0.677
>>> recorded_result("C33G C62G")
0.196
>>> recorded_result("U46G G74A")
0.365
>>> recorded_result("G1C G54U")
0.396
>>> recorded_result("C36G G54U")
0.166
>>> recorded_result("C15A C30G")
0.138
>>> recorded_result("A45C C66A")
0.684
>>> recorded_result("A16C A51C")
0.612
>>> recorded_result("C32A G73U")
0.0959
>>> recorded_result("C7G A78U")
0.0791
>>> recorded_result("C41U A78U")
0.199
>>> recorded_result("C66G G74A")
0.471
>>> recorded_result("C7U G34U")
0.0923
>>> recorded_result("U27A U72G")
0.739
>>> recorded_result("G31A C48A")
0.616
>>> recorded_result("C19A U60G")
0.0361
>>> recorded_result("G40C U47G")
0.173
>>> recorded_result("C14A G59U")
1.05
>>> recorded_result("C61A U65A")
0.774
>>> recorded_result("A16C A45C")
0.35
>>> recorded_result("C18A C36U")
0.0386
>>> recorded_result("G28A G31U")
0.133
>>> recorded_result("G25A C75A")
0.166
>>> recorded_result("G53A A83G")
0.802
>>> recorded_result("G5A G82A")
0.0554
>>> recorded_result("U27A U72A")
0.266
>>> recorded_result("U9G G11C")
0.594
>>> recorded_result("G35C G67C")
0.0519
>>> recorded_result("C14A U46A")
0.199
>>> recorded_result("C14G G39U")
0.237
>>> recorded_result("G6A A51C")
0.522
>>> recorded_result("C66A A71G")
0.782
>>> recorded_result("U20C A87U")
0.189
>>> recorded_result("C57A A78U")
0.108
>>> recorded_result("C24A G74A")
0.12
>>> recorded_result("U12G C24A")
0.65
>>> recorded_result("A16G U47G")
1.14
>>> recorded_result("U23C A83C")
0.302
>>> recorded_result("G10U U65G")
0.619
>>> recorded_result("G55U A77U")
0.453
>>> recorded_result("G5A U72G")
0.147
>>> recorded_result("C24G A77G")
0.298
>>> recorded_result("G59C U60G")
1.16
>>> recorded_result("C44U C86U")
0.886
>>> recorded_result("G35A U72A")
0.208
